molecular target: 5-hydroxytryptamine receptor 1D (Homo sapiens, UniProt P28221); test: Intrinsic activity at human 5-HT1D receptor expressed in CHO cells assessed as effect on GTPgammaS binding by scintillation proximity assay relative to 5HT; format: functional, cell-based
Sequence (P28221 whole entry): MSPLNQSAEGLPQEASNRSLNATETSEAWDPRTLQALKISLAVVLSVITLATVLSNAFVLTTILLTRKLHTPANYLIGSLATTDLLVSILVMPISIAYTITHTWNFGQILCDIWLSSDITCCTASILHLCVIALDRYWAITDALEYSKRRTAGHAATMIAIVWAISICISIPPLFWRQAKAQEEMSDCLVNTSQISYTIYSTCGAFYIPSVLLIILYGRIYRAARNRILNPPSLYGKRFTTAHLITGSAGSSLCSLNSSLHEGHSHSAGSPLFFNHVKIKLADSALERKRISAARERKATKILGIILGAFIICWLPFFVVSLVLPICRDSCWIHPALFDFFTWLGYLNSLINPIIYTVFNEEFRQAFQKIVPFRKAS
OBSERVED PROPERTY: Intrinsic activity

Some solved entries appear below for comparison.
Cc1ccc2c(N3CCN(CCc4cccc5c4ccc(=O)n5C)[C@@H](C)C3)cccc2n1 | 0
Cc1ccc2c(N3CCN(CCc4cccc5[nH]c(=O)ccc45)CC3)cccc2n1 | 0
Cc1ccc2c(N3CCN(CCc4c(C)ccc5c4ccc(=O)n5C)[C@H](C)C3)cccc2n1 | 0
Cc1ccc2c(N3CCN(CCc4cccc5c4CCC(=O)N5C)CC3)cccc2n1 | 0
Cc1ccc2c(N3CCN(CCc4c(C)ccc5c4ccc(=O)n5C)[C@@H](C)C3)cccc2n1 | 0
Cc1ccc2c(N3CCN(CCc4cccc5c4ccc(=O)n5C)[C@@H](C)C3)cc(F)cc2n1 | 0
Cc1ccc2c(C3CCN(CCc4c(C)ccc5c4ccc(=O)n5C)CC3)cccc2n1 | 0
Cc1ccc2c(N3CCN(CCc4cccc5c4CCC(=O)N5)CC3)cccc2n1 | 0
Cc1ccc2c(N3CCN(CCc4c(C)ccc5c4CCC(=O)N5C)CC3)cccc2n1 | 0
Cc1ccc2c(N3CCN(CCc4c(C)ccc5c4CCC(=O)N5)CC3)cccc2n1 | 0.5

A = Cc1ccc2c(N3CCN(CCc4cccc5c4ccc(=O)n5C)CC3)cccc2n1
B = Cc1ccc2c(N3CCN(CCc4c(Cl)ccc5c4ccc(=O)n5C)CC3)cccc2n1
Lookup: Larger number for Intrinsic activity: A , or B ? Indicate which entry you chose by stating its label.
Found: A

====

target: 5-hydroxytryptamine receptor 1D (Homo sapiens); test: Antagonist activity at human 5-HT1D receptor expressed in CHO cells assessed as inhibition of GTPgammaS binding by scintillation proximity assay
OBSERVED PROPERTY: Ki (nM)

The examples below pair each entry with its known result.
Cc1ccc2c(N3CCN(CCc4cccc5c4ccc(=O)n5C)C(C)(C)C3)cccc2n1 | 0.501
Cc1ccc2c(N3CCN(CCc4cccc5c4ccc(=O)n5C)[C@@H](C)C3)cc(F)cc2n1 | 1.26
Cc1ccc2c(N3CCN(CCc4c(C)ccc5c4ccc(=O)n5C)CC3)cccc2n1 | 2
Cc1ccc2c(N3CCN(CCc4c(C)ccc5c4ccc(=O)n5C)[C@H](C)C3)cccc2n1 | 2.51
Cc1ccc2c(N3CCN(CCc4cccc5c4ccc(=O)n5C)[C@H](C)C3)cc(F)cc2n1 | 0.126

P = Cc1ccc2c(N3CCN(CCc4cccc5c4ccc(=O)n5C)[C@@H](C)C3)cccc2n1
Q = Cc1ccc2c(N3CCN(CCc4c(C)ccc5c4ccc(=O)n5C)CC3)cc(F)cc2n1
Lookup: For this pair, P and Q , which shows a numerically higher Ki? Pick one and reply with its label.
Found: P
(P: 5.01 nM, Q: 2 nM)

====

biological target: UniProt:P28222; assay: Intrinsic activity at human 5-HT1B receptor expressed in CHO cells assessed as effect on GTPgammaS binding by scintillation proximity assay relative to 5HT; format: functional, cell-based
Sequence (P28222 whole entry): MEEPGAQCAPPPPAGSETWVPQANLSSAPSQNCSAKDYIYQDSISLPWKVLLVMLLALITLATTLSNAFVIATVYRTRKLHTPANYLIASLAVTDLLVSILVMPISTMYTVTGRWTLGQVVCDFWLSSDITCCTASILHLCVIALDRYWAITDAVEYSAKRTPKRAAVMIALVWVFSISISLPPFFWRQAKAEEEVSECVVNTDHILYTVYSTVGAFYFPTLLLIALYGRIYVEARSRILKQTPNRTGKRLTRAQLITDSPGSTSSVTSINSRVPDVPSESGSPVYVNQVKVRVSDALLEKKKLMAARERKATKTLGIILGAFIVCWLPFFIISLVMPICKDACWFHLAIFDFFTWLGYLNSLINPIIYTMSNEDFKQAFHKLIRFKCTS
OBSERVED PROPERTY: Intrinsic activity

Cc1ccc2c(N3CCN(CCc4c(C)ccc5c4CCC(=O)N5C)CC3)cccc2n1 | 0.4

A = Cc1ccc2c(N3CCN(CCc4c(C)ccc5c4ccc(=O)n5C)CC3)cccc2n1
B = Cc1ccc2c(N3CCN(CCc4cccc5c4ccc(=O)n5C)[C@@H](C)C3)cccc2n1
Lookup: Recorded Intrinsic activity values differ for A and B ; which one is higher? Mark your answer with the label of the selected entry.
Found: A
(A: 0.4, B: 0)

Reference for the values: ChEMBL document CHEMBL1287678
